System: Mythimna separata
Experiment: Antifeedant activity against third instar larvae of Mythimna separata (Oriental armyworm) in compound treated leaf disk at 500 ppm
Format: functional, organism-based
Active and inactive are the calls of the source. The rule behind the calls is not given here.
A correct response names exactly one class from active, inactive

Before answering, review these 3 worked examples.
Cpd Smiles	Assay System	Group Label
COC(=O)[C@H](OC(C)=O)[C@H]1[C@]2(C)C[C@]3(O)[C@@](OC(C)=O)([C@H]4O[C@@]5(C)O[C@@]6(CC[C@@]7(C)[C@H](c8ccoc8)OC(=O)C[C@@]7(O)[C@@]46O5)[C@]13C)[C@H]2OC(C)=O	Mythimna separata	active
COC(=O)[C@@H](OC(C)=O)[C@@H]1[C@@]2(C)C[C@@]3(O)[C@@](O)([C@@H]2OC(C)=O)[C@@H]2O[C@]4(C)O[C@]5(C[C@@H](OC(C)=O)[C@@]6(C)C(=CC(=O)O[C@@H]6c6ccoc6)[C@]25O4)[C@@]13C	Mythimna separata	active
COC(=O)[C@@H](O)[C@@H]1[C@@]2(C)C[C@@]3(O)[C@@](O)([C@@H]2OC(C)=O)[C@@H]2O[C@]4(C)O[C@]5(C[C@@H](OC(C)=O)[C@@]6(C)C(=CC(=O)O[C@@H]6c6ccoc6)[C@]25O4)[C@@]13C	Mythimna separata	inactive

Next up:
Problem: Which outcome was entered for the molecule COC(=O)[C@H](OC(C)=O)[C@H]1[C@]2(C)C[C@]3(O)[C@H]([C@H]2OC(C)=O)[C@H]2O[C@@]4(C)O[C@@]5(CC[C@@]6(C)[C@H](c7ccoc7)OC(=O)C[C@@]6(O)[C@@]25O4)[C@]13C in this test?
Result: inactive

Every entry's value here was drawn from ChEMBL document CHEMBL3045274.
